target: MBP-CpeIF4A (Cryptosporidium parvum, UniProt F0X401 1-405); test: RNA alone, no ATP, no Roc-A; TSA: 90 mM Na2HPO4, 10 mM NaH2PO4, 2 mM DTT, pH 7.8, 5 uM MBP-CpeIF4A, 20 uM SYPRO Orange; melt 40-70 C at 1 C/min; details: protein: recombinant; tags: N-terminal MBP (pMAL-c5X); label: 6-FAM on 42-nt strand (text says 5' end, printed at 3'); BHQ-1 on 24-nt strand (text says 3', printed at 5'); 5' overhang 18 nt on strand 1, 24 bp duplex
measured metric: Kd (nM)

binder	u	measured value
5'-overhanging duplex RNA (42/24 nt) (dsRNA) RNA 1: CAUUAUCGGAUAGUGGAACCUAGCUUCGACUAUCGGAUAAUC RNA 2: GAUUAUCCGAUAGUCGAAGCUAGG	nM	1130
